# Tested on: SGLT1
# Experiment description: Glucose transport inhibitor cell screening assay, 5 mM D-glucose for 15 minutes
# Experimental parameters: based on inhibition at 5 mM and 25 mM D-glucose
Assay metric: Class (assigned class of transporter inhibited)

| Compound | Measured target | Result value |
| --- | --- | --- |
| O=c1cc(-c2ccc(O)c(O)c2)oc2cc(O[C@@H]3O[C@H](CO)[C@@H](O)[C@H](O)[C@H]3O)cc(O)c12 [Luteolin-7-glucoside] | SGLT1 | SGLT1 |
| O=c1c(O)c(-c2ccc(O)cc2)oc2cc(O[C@@H]3O[C@H](CO)[C@@H](O)[C@H](O)[C@H]3O)cc(O)c12 [Kaempferol 7-O-glucoside] | SGLT1 | SGLT1 |
| O=c1c(-c2ccc(O)cc2)coc2cc(O[C@@H]3O[C@H](CO)[C@@H](O)[C@H](O)[C@H]3O)ccc12 [Daidzein-7-glucoside] | SGLT1 | SGLT1 |
| O=c1cc(-c2ccc(O)cc2)oc2c([C@@H]3O[C@H](CO)[C@@H](O)[C@H](O)[C@H]3O)c(O)cc(O)c12 [Apigenin-8-C-glucoside] | SGLT1 | SGLT1 |

In the following, a different compound is considered.
Prompt line: I'd like to know its Class (assigned class of transporter inhibited). The compound in question is Oc1cc(O)c2cc(O)c(-c3cc(O)c(O)c(O)c3)[o+]c2c1 [Delphinindin]
Response line: None
